target: JAK2 (Homo sapiens); construct: made in house; host or cells: SF9 insect cells (baculovirus); assay: JAK2 inhibition (Table 4); assay type: biochemical; settings: read-out: JAK2 Ki
Sequence (O60674 812-1132): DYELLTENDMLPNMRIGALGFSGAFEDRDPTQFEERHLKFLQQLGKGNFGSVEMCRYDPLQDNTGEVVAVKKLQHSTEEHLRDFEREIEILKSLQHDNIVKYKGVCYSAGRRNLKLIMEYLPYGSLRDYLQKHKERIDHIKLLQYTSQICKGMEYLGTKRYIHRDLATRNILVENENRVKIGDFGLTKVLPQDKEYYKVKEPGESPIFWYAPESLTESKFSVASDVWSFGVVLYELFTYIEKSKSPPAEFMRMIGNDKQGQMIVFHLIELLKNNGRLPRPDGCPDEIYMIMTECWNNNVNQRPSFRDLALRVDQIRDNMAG
pKi: −log10 of the molar value.
measurement.name: pKi

CCN1CC[C@@H](n2c(CCNS(=O)(=O)CC)nc3cnc4[nH]ccc4c32)[C@@H](F)C1 [Example 681]
7.49

A = Cn1ncc2c1CC[C@H](n1cnc3cnc4[nH]ccc4c31)C2 [Example 954]
B = O=C(Cc1nc2cnc3[nH]ccc3c2n1C1CCCOC1)N1CCCC(O)C1 (racemic) [Example 982]
## Input Which record shows the lower pKi: the first, A , or the second, B ? Please respond with the label that marks your chosen entry.
## Output B
(B: 6.51, A: 7.01)

I = N#Cc1nc2cnc3[nH]ccc3c2n1C1CCNCC1 [Example 170]
II = CC1(n2cnc3cnc4[nH]ccc4c32)CCN(CC(F)(F)F)CC1 [Example 752]
## Input Param pair: I , II . Output: the one whose pKi is numerically greater. Please respond with the label that marks your chosen entry.
## Output II
(II: 7.01, I: 6.48)

1 = c1cc2c(ncc3nc([C@H]4CCCN4)n([C@H]4CCCOC4)c32)[nH]1 [Example 667]
2 = CS(=O)(=O)CCN1CCC[C@@H](n2cnc3cnc4[nH]ccc4c32)C1 [Example 57]
## Input Param pair: 1 , 2 . Output: the one whose pKi is numerically greater. Please respond with the label that marks your chosen entry.
## Output 2

----------
biological target: JAK1 (Homo sapiens, UniProt P23458); construct: made in house; host or cells: SF9 insect cells (baculovirus); assay: JAK1 inhibition (Table 4); assay type: biochemical; conditions: read-out: JAK1 Ki
Sequence (P23458 852-1154): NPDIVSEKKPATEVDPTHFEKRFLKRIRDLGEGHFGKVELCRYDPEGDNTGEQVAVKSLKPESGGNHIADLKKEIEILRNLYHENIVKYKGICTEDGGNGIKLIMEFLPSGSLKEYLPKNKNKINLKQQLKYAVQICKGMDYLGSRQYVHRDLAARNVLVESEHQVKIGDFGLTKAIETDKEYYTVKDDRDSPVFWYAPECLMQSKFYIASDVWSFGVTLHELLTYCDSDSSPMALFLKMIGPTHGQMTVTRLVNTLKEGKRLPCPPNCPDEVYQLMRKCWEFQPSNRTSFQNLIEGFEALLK
measurement.name: Ki (µM)

CCC(COC)n1c(C)nc2cnc3[nH]ccc3c21 (racemic)
0.115
O=C(CO)N1CCC(n2cnc3cnc4[nH]ccc4c32)CC1
0.00387
Cn1cc2c(n1)CCC(n1cnc3cnc4[nH]ccc4c31)C2 (racemic)
0.0553

I = CN1CCCCCC1C(=O)N1CCC(n2cnc3cnc4[nH]ccc4c32)CC1 (racemic)
II = CNC(=O)N(C)[C@H]1CC[C@H](n2c(C)nc3cnc4[nH]ccc4c32)CC1
III = N#CCCN1CCC(n2c(CCNC(=O)c3ccc(F)cc3)nc3cnc4[nH]ccc4c32)CC1
## Input // sort entries: Ki, high to low Thanks in advance for listing the labels in the requested order.
## Output I, II, III
(I: 0.0457 µM, II: 0.0178 µM, III: 0.00407 µM)

1 = N#CCCN1CCC(n2c(COCc3ccc(F)c(F)c3)nc3cnc4[nH]ccc4c32)CC1
2 = COCCN1CC[C@H](n2c([C@@H](C)O)nc3cnc4[nH]ccc4c32)C(F)(F)C1
3 = OCc1nc2cnc3[nH]ccc3c2n1C1CCN(Cc2ccccc2)CC1(F)F (racemic)
## Input List the 3 entries from lowest Ki to highest Ki value. Thanks in advance for listing the labels in the requested order.
## Output 3, 2, 1
(3: 0.00042 µM, 2: 0.00215 µM, 1: 0.0379 µM)

A = N#Cc1ccc(CN2CCC(n3cnc4cnc5[nH]ccc5c43)CC2)cc1
B = CC(C)N1CC(c2nc3cnc4[nH]ccc4c3n2C2CCN(CCC#N)CC2)CC1=O (racemic)
C = O=C(Cc1nc2cnc3[nH]ccc3c2n1C1CC2CCC1C2)N1CCC(O)CC1 (racemic)
## Input // sort entries: Ki, high to low Thanks in advance for listing the labels in the requested order.
## Output B, A, C
(B: 0.0236 µM, A: 0.0013 µM, C: 0.00089 µM)
